- System Under Test: Recombinant human renin (Homo sapiens, UniProt P00797)
- Construct: isolate the active form (residues 67-406); made in house; host or cells: FreeStyle 293-F cells (transient expression of pcDNA3.1(+)/hREN)
- Sequence (P00797 67-406): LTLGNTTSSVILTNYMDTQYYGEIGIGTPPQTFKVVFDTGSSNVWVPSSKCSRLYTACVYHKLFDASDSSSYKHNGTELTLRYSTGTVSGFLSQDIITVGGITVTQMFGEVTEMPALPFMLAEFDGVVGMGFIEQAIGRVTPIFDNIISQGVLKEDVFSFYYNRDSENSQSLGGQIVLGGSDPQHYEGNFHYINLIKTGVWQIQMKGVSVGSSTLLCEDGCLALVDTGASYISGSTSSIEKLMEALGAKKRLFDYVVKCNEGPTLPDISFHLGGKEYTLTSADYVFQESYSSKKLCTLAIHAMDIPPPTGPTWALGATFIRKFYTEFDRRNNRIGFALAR
- Assay Overview: In vitro enzymatic activity assay of Renin inhibitors (fluorescence, QXL520/HiLyteFluo488 peptide substrate)
- Type: biochemical
- Run Parameters: recombinant human renin 3 nM, 1 μM substrate, 37° C., pH 7.4; values given as ranges; read-out: IC50 of Exemplified Compounds Against Renin
Endpoint: IC50

Q: Identify measured IC50 corresponding to O=C(Cc1ccccc1-c1ccccc1Cl)N1CCNC[C@H]1Cc1ccccc1
Ans: 0.5 to 5 µM

Q: Identify measured IC50 corresponding to Cc1ccc(C(CC(=O)N2CCNC[C@H]2Cc2ccccc2)N2Cc3ccccc3C2=O)cc1 (some centres unmarked)
Ans: 0.5 to 5 µM

Q: Identify measured IC50 corresponding to CCNC(=O)c1cccc(Oc2ccccc2CCC(=O)N2CCNC[C@H]2Cc2ccccc2)c1
Ans: 0.5 to 5 µM

Q: Identify measured IC50 corresponding to O=C(CC(c1ccccc1)c1ccccc1)N1CCNC[C@H]1Cc1ccccc1
Ans: 0.5 to 5 µM

Q: Identify measured IC50 corresponding to O=C(Cc1ccccc1Oc1ccccc1)N1CCNC[C@H]1Cc1ccccc1
Ans: 5 to 50 µM

Q: Identify measured IC50 corresponding to Cc1ccc(Oc2ccccc2CCC(=O)N2CCNC[C@H]2Cc2ccccc2)cc1
Ans: < 0.5 µM

Provide each entry's IC50 from the list below.
1. Cc1nc(-c2ccc(Cl)cc2)c(CCC(=O)N2CCNC[C@H]2Cc2ccccc2)o1
2. O=C(CCC(=O)N1CCNC[C@H]1Cc1ccccc1)N(c1ccccc1)c1ccccc1
3. CCOc1cccc(Oc2ccccc2CCC(=O)N2CCNC[C@H]2Cc2ccccc2)c1
4. CC(=O)c1cccc(Oc2ccccc2CCC(=O)N2CCNC[C@H]2Cc2ccccc2)c1
5. O=C(CCc1ccccc1OCCCO)N1CCNC[C@H]1Cc1ccccc1
6. O=C(NC(c1ccccc1)c1ccccc1)N1CCNC[C@H]1Cc1ccccc1
7. O=C(COc1cccc(Cc2ccccc2)c1)N1CCNC[C@H]1Cc1ccccc1

Ans:
1: 5 to 50 µM; 2: 0.5 to 5 µM; 3: 0.5 to 5 µM; 4: 0.5 to 5 µM; 5: 0.5 to 5 µM; 6: > 50 µM; 7: 5 to 50 µM

Provide each entry's IC50 from the list below.
1. CC(=O)NCCc1ccccc1Cc1ccccc1CCC(=O)N1CCNC[C@H]1Cc1ccc(-c2nnn[nH]2)cc1
2. Cc1cccc(Oc2ccccc2CCC(=O)N2CCNC[C@H]2Cc2ccccc2)c1
3. CC(=O)NCCc1ccccc1Oc1ccc(C)cc1CCC(=O)N1CCNC[C@H]1Cc1ccccc1
4. CCC(=O)NCCc1ccccc1Oc1ccccc1CCC(=O)N1CCNC[C@H]1Cc1ccccc1

Ans:
1. < 0.5 µM
2. < 0.5 µM
3. < 0.5 µM
4. < 0.5 µM

----------
Assign pIC50 to each entry below.
- System Under Test: Recombinant human renin (Homo sapiens, UniProt P00797)
- Construct: isolate the active form (residues 67-406); made in house; host or cells: FreeStyle 293-F cells (transient expression of pcDNA3.1(+)/hREN)
- Sequence (P00797 67-406): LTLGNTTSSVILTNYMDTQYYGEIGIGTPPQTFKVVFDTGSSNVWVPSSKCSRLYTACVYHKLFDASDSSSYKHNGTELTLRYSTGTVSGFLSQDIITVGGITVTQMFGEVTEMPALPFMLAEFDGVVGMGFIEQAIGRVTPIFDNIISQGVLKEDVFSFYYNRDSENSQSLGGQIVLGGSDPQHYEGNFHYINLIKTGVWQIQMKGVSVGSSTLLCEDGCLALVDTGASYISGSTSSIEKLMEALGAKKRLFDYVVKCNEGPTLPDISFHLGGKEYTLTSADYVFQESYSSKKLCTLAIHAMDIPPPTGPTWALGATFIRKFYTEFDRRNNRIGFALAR
- Assay Overview: In vitro enzymatic activity assay of Renin inhibitors (fluorescence, QXL520/HiLyteFluo488 peptide substrate)
- Type: biochemical
- Run Parameters: recombinant human renin 3 nM, 1 μM substrate, 37° C., pH 7.4; values given as ranges; read-out: IC50 of Exemplified Compounds Against Renin
pIC50: −log10 of the molar value.

Use the examples below as a reference point.
Q: Identify measured pIC50 corresponding to CC(=O)NCCc1ccccc1Oc1cc(C)ccc1CCC(=O)N1CCNC[C@H]1Cc1ccccc1 [Example 28]
Ans: > 6.30

Q: Identify measured pIC50 corresponding to CC(=O)NCCc1cc(C)ccc1Oc1ccccc1CCC(=O)N1CCNC[C@H]1Cc1ccccc1 [Example 49]
Ans: > 6.30

Q: Identify measured pIC50 corresponding to C[C@H](CC(=O)N1CCNC[C@H]1Cc1ccccc1)c1ccccc1 [Example 17]
Ans: 5.30 to 6.30

# context switch: different compound, same pIC50
Q: Identify measured pIC50 corresponding to CC(=O)NCc1cc(C)ccc1Oc1cc(C)ccc1CCC(=O)N1CCNC[C@H]1Cc1ccccc1 [Example 46]
Ans: > 6.30

----------
Assign IC50 to each entry below.
- System Under Test: Recombinant human renin (Homo sapiens, UniProt P00797)
- Construct: isolate the active form (residues 67-406); made in house; host or cells: FreeStyle 293-F cells (transient expression of pcDNA3.1(+)/hREN)
- Sequence (P00797 67-406): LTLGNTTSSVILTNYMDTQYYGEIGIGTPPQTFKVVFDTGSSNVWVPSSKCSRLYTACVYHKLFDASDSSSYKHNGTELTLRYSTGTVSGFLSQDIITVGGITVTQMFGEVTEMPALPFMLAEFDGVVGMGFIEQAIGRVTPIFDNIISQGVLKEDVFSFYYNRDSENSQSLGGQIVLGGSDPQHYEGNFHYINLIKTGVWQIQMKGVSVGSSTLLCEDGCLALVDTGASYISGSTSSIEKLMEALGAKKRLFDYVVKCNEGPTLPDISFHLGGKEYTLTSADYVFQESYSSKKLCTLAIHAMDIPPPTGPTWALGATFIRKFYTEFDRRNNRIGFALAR
- Assay Overview: In vitro enzymatic activity assay of Renin inhibitors (fluorescence, QXL520/HiLyteFluo488 peptide substrate)
- Format: biochemical
- Run Parameters: recombinant human renin 3 nM, 1 μM substrate, 37° C., pH 7.4; values given as ranges; read-out: IC50 of Exemplified Compounds Against Renin

Q: Identify measured IC50 corresponding to NC(=O)CCc1ccccc1Oc1ccccc1CCC(=O)N1CCNC[C@H]1Cc1ccccc1 [Example 83]
Ans: < 0.5 µM

Q: Identify measured IC50 corresponding to CC(=O)NCCc1cc(C)ccc1Oc1cc(C)ccc1CCC(=O)N1CCNC[C@H]1Cc1ccccc1 [Example 27]
Ans: < 0.5 µM

# context switch: different compound, same IC50
Q: Identify measured IC50 corresponding to CC(=O)NCCc1cc(C)ccc1Oc1ccc(C)cc1CCC(=O)N1CCNC[C@H]1Cc1ccccc1 [Example 25]
Ans: < 0.5 µM

----------
Assign pIC50 to each entry below.
- System Under Test: Recombinant human renin (Homo sapiens, UniProt P00797)
- Construct: isolate the active form (residues 67-406); made in house; host or cells: FreeStyle 293-F cells (transient expression of pcDNA3.1(+)/hREN)
- Assay Overview: In vitro enzymatic activity assay of Renin inhibitors (fluorescence, QXL520/HiLyteFluo488 peptide substrate)
- Type: biochemical
- Run Parameters: recombinant human renin 3 nM, 1 μM substrate, 37° C., pH 7.4; values given as ranges; read-out: IC50 of Exemplified Compounds Against Renin
pIC50: −log10 of the molar value.

Q: Identify measured pIC50 corresponding to COCCOCCCOc1ccccc1CCC(=O)N1CCNC[C@H]1Cc1ccccc1
Ans: 5.30 to 6.30

Q: Identify measured pIC50 corresponding to O=C(CCc1ccccc1Cc1ccc(Cl)cc1)N1CCNC[C@H]1Cc1ccccc1
Ans: > 6.30

Provide each entry's pIC50 from the list below.
1. COC(=O)COc1ccc(C[C@@H]2CNCCN2C(=O)CCc2ccccc2Oc2ccccc2)cc1
2. O=C(CCc1ccccc1)N1CCNC[C@H]1Cc1ccccc1
3. CC(=O)NCc1ccc(C)nc1Oc1cc(C)ccc1CCC(=O)N1CCNC[C@H]1Cc1ccccc1
4. O=C(Oc1ccccc1CCC(=O)N1CCNC[C@H]1Cc1ccccc1)c1ccccc1
5. O=C(CC(Cc1ccccc1)c1ccco1)N1CCNC[C@H]1Cc1ccccc1 (some centres unmarked)
6. O=C(CCc1ccccc1Oc1ccccc1CO)N1CCNC[C@H]1Cc1ccccc1
7. CC(=O)NCc1c(C)cc(C)nc1Oc1ccccc1CCC(=O)N1CCNC[C@H]1Cc1ccccc1
8. N#Cc1ccccc1Oc1ccccc1CCC(=O)N1CCNC[C@H]1Cc1ccccc1

Ans:
5.30 to 6.30
4.30 to 5.30
5.30 to 6.30
5.30 to 6.30
5.30 to 6.30
> 6.30
> 6.30
5.30 to 6.30
